System: HepG2
measurementProtocol: cytotoxicity call (relative viability < 0.9)
cond: 10 µM
Screen size: about 39,000 compounds; about 3,300 (8.5%) were called active. This excerpt belongs to a sample that is enriched for actives.
// classify into 1 = active, -1 = inactive

| smilesStr | qualitativeLabel |
| --- | --- |
| CCc1c(O)cc(O)c(C(=O)c2ccc(OCCN3CCOCC3)c(OC)c2)c1CC(=O)N(CCOC)CCOC | 1 |

Answer briefly: the call reported for COc1ccc2c3c(n(c2c1)C)[C@@H](CO)N(C[C@]13CN(Cc2ccncc2)C1)C(=O)CN1CCOCC1 in this assay.
-1

For COc1ccc(S(=O)(=O)N(C)C[C@H]2Oc3c(cccc3N(C)C)C(=O)N([C@@H](C)CO)C[C@H]2C)cc1 , what call appears in the results of this test?
-1

Test call, this molecule: COc1ccc(CN(C)C[C@@H]2Oc3ccc(NC(=O)CCCN(C)C)cc3C(=O)N([C@@H](C)CO)C[C@H]2C)cc1
-1

====

Test system: HepG2
measurementProtocol: cytotoxicity call (relative viability < 0.9)
cond: 10 µM
In all, about 39,000 compounds went through this assay and about 3,300 (8.5%) were called active. The sample as a whole holds a higher share of actives than the screen did.
I would appreciate it if you answered using one of these outcomes: active, inactive

As a guide, the following entries are already answered.
| smilesStr | qualitativeLabel |
| --- | --- |
| COc1ccc(S(=O)(=O)N(C)C[C@@H]2Oc3c(NC(=O)C4CC4)cccc3C(=O)N([C@H](C)CO)C[C@H]2C)cc1 | inactive |
| CC(C)NC(=O)N(C)C[C@@H]1Oc2c(NC(=O)NC3CCCCC3)cccc2C(=O)N([C@H](C)CO)C[C@H]1C | inactive |
| COc1cccc(C#Cc2ccc3c(c2)O[C@H](CN(C)C(=O)c2ccccn2)[C@H](C)CN([C@H](C)CO)S3(=O)=O)c1 | active |

What classification did COc1cccc(S(=O)(=O)N(C)C[C@H]2Oc3ncc(C#CC(C)C)cc3C(=O)N([C@H](C)CO)C[C@@H]2C)c1 end up with in this test?
inactive

====

System: HepG2
measurementProtocol: cytotoxicity call (relative viability < 0.9)
cond: 10 µM
Out of some 39,000 compounds screened, about 3,300 (8.5%) were called active. The full list was thinned out, with actives kept by preference.

| smilesStr | cytotoxicity call |
| --- | --- |
| C[C@H](O)C#Cc1ccc2c(c1)O[C@@H](CN(C)C(=O)CN(C)C)[C@H](C)CN([C@H](C)CO)S2(=O)=O | inactive |
| O=C(CCCCCCC(=O)Nc1ccc([C@H]2O[C@H](CSc3nc(-c4ccccc4)c(-c4ccccc4)o3)C[C@H](c3ccc(NC(=O)CCCCCCC(=O)NO)cc3)O2)cc1)NO | inactive |
| CO[C@@H]1CN(C)C(=O)c2cc(NC(=O)C3CCCC3)ccc2OC[C@@H](C)N(C(=O)Nc2ccc(C(F)(F)F)cc2)C[C@H]1C | inactive |
| O=C(CCCCCCC(=O)Nc1ccc([C@H]2O[C@@H](CN3CCCCCCC3)C[C@H](c3ccccc3)O2)cc1)NO | inactive |

====

Test system: HepG2
measurementProtocol: cytotoxicity call (relative viability < 0.9)
cond: 10 µM
Hit rate of the full screen: of about 39,000 compounds, about 3,300 (8.5%) were called active. What follows is part of a selection rich in actives, with near analogues and random picks from the rest.
Pick from YES = active, NO = inactive when you respond.

| smilesStr | qualitativeLabel |
| --- | --- |
| C[C@@H]1CN([C@@H](C)CO)C(=O)Cc2cc(NC(=O)CCCCCC(=O)Nc3ccccc3N)ccc2O[C@H]1CN(C)Cc1ccc(C(F)(F)F)cc1 | NO |
| CN(C)C(=O)C[C@@H]1CC[C@@H](NC(=O)C2CCOCC2)[C@H](CO)O1 | NO |
| C[C@@H]1CN([C@@H](C)CO)C(=O)c2cccc(NS(=O)(=O)c3ccc(Cl)cc3)c2O[C@@H]1CN(C)Cc1ccc(C(=O)Nc2ccccc2N)cc1 | YES |
| C[C@H]1CN([C@@H](C)CO)C(=O)c2cccc(NS(=O)(=O)c3ccc(Cl)cc3)c2O[C@@H]1CN(C)Cc1ccc(C(=O)Nc2ccccc2N)cc1 | NO |
| C[C@@H]1CN([C@H](C)CO)C(=O)Cc2cc(NC(=O)CCCCCC(=O)Nc3ccccc3N)ccc2O[C@@H]1CN(C)Cc1ccc(C(F)(F)F)cc1 | YES |
| C[C@H](CO)N1C[C@H](C)[C@H](CN(C)C(=O)Nc2ccc(C(F)(F)F)cc2)Oc2ccc(NC(=O)Nc3cccc4ccccc34)cc2CC1=O | NO |
| C[C@@H]1CN([C@H](C)CO)C(=O)c2cc(NC(=O)Nc3cccc4ccccc34)ccc2O[C@@H](C)CCCCO[C@@H]1CN(C)CC1CCCCC1 | YES |
| O=C(C[C@@H]1C[C@H]2c3cc(NC(=O)c4ccc5c(c4)OCO5)ccc3O[C@H]2[C@H](CO)O1)NCCN1CCCCC1 | NO |
| COc1ccc(S(=O)(=O)N(C)C[C@H]2Oc3ccc(NS(=O)(=O)c4cn(C)cn4)cc3C(=O)N([C@H](C)CO)C[C@@H]2C)cc1 | NO |
| COc1cccc(S(=O)(=O)N(C)C[C@H]2OCc3cnnn3CCCC(=O)N([C@@H](C)CO)C[C@H]2C)c1 | NO |

Outcome? COc1ccc(S(=O)(=O)Nc2ccc3c(c2)C(=O)N([C@@H](C)CO)C[C@@H](C)[C@@H](CN(C)C(=O)Nc2ccc(C(F)(F)F)cc2)OCCCC[C@H](C)O3)cc1
NO

// param item: C=C1C[C@]23CC[C@@H]4[C@@](C)(CCC[C@@]4(C)C(=O)O)[C@H]2CC[C@H]1C3 ; yields the recorded call
YES

Entry source: the antibiotic and cytotoxicity screens of Wong et al. (2023)
